Experimental system: human FPR1 (Homo sapiens, UniProt P21462)
Sequence (P21462 1-350): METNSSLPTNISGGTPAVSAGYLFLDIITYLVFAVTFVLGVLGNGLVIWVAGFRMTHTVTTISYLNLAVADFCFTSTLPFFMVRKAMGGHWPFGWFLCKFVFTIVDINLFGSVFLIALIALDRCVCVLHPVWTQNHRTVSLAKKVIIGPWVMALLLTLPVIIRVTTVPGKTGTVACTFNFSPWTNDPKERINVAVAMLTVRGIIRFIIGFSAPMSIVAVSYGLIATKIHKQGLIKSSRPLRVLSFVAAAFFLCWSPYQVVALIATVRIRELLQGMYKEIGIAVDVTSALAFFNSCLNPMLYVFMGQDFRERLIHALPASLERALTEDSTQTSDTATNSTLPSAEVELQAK
Assay overview: FPR1 cyclic adenosine monophosphate (cAMP) assay
Setup conditions: CHO cells overexpressing human FPR1; forskolin 10 μM; inhibition of cAMP production; HTRF; read-out: hFPR1 cAMP2 EC50
The entries below are paired with their reported EC50.

Example results:
compound=COc1cc(F)c(-c2c(NC(=O)c3ccc(OC(F)F)cc3)c(=O)n(Cc3nnc(C(C)C)o3)n2C)c(F)c1 result_value="380 nM"
compound=COc1cc(F)c(-c2c(NC(=O)c3ccc(OC(F)(F)F)cc3)c(=O)n(-c3cccc(C(F)F)n3)n2C)c(F)c1 result_value="1000 nM"
compound="COc1cc(F)c(-c2c(NC(=O)c3ccc(OC(F)F)cc3)c(=O)n(-c3nc(N4CCC(C(N)=O)C4)ccc3C(F)(F)F)n2C)c(F)c1 (stereo not shown) [Example 303]" result_value="> 10000 nM"

Record `Cc1cc(OCC(C)(C)O)nc(-n2c(=O)c(NC(=O)c3ccc(OC(F)F)cc3)c(-c3c(F)cc(OC(F)F)cc3F)n2C)c1` . Reported EC50: > 10000 nM

Record `COc1cc(F)c(-c2c(NC(=O)c3ccc(OC(F)F)cc3)c(=O)n(-c3nc(N[C@H](C)CO)ccc3C(F)(F)F)n2C)c(F)c1` . Reported EC50: > 10000 nM

Record `COc1cc(F)c(-c2c(NC(=O)c3ccc(OC(F)F)cc3)c(=O)n(-c3cccc(OC)n3)n2C)c(F)c1` . Reported EC50: 2300 nM

Record `COc1cc(F)c(-c2c(NC(=O)c3ccc(OC(F)F)cc3)c(=O)n(-c3nc(Cl)ccc3C(F)(F)F)n2C)c(F)c1` . Reported EC50: > 10000 nM

Record `COc1cc(F)c(-c2c(NC(=O)c3ccc(OC(F)F)cc3)c(=O)n(-c3nc(C(C)(C)F)ccc3C#N)n2C)c(F)c1` . Reported EC50: > 10000 nM
